tested on: MDA 468 (ER−) human derived breast carcinoma cells
resultType: GI50 (nM)

Would you please look over these solved cases?
# moleculeSmiles, unitOfMeasurement, GI50
data = [
    ("Cc1cc(-c2nc3cc(F)ccc3s2)ccc1NC(=O)[C@@H](N)CCCCN", "nM", 57.7),
    ("Cc1cc(-c2nc3ccc(F)cc3s2)ccc1NC(=O)[C@H](C)N", "nM", 297),
    ("Cc1cc(-c2nc3ccccc3s2)ccc1NC(=O)[C@H](C)N", "nM", 39.9),
    ("Cc1cc(-c2nc3ccc(F)cc3s2)ccc1N", "nM", 0.73),
]

[A] Cc1cc(-c2nc3cc(F)c(F)cc3s2)ccc1NC(=O)[C@H](C)N
[B] Cc1cc(-c2nc3cc(F)ccc3s2)ccc1NC(=O)[C@H](C)N
Q: Which numeric GI50 is bigger, that of A or that of B ? Label of pick, please.
Ans: A
